- Target Entity: SK3/KCa2.3 channel (Homo sapiens)
- Test Protocol: Whole-cell patch clamp on HEK293 cells expressing SK3
- Format: cell-based
- Set-up: expressed in transfected cells; host or cells: HEK293, lentiviral transduction, clonal selection
- Test Conditions: HEK 293 LvSK3 cells
- Procedure: The percentages of inhibition represent the ratio (SK3 current amplitude and chord conductance (in the presence of 10 μM JPH1701)/SK3 current amplitude in control experiments). […] The pipette solution for the whole-cell recordings contained (in mM): K-glutamate 125, KCl 20, MgCl2 1, Mg-ATP 1, HEPES 10, and pH was adjusted to 7.2 with KOH and various concentrations of CaCl2 and EGTA were added to obtain calculated pCa=7 (0.37 mM CaCl2 and 10 mM EGTA) or pCa=6.4 (0.7 mM CaCl2 and 1 mM EGTA). […]
Observed Property: Conductance decreasing (%)
Express the result in % but write the number alone.

Consider the following illustrative entries.
{"columns": ["Molecule", "Conductance decreasing, %"],
 "data": [
  ["CCCCCCCCCCCCCCCCOC[C@H](CO[C@@H]1O[C@H](CO[C@H]2O[C@H](COC(C)=O)[C@H](OC(C)=O)[C@H](OC(C)=O)[C@H]2OC(C)=O)[C@@H](OC(C)=O)[C@H](OC(C)=O)[C@H]1OC(C)=O)OC", 34.1],
  ["CCCCCCCCCCCCCCCCOC[C@H](CO[C@@H]1O[C@H](COC(C)=O)[C@@H](O[C@H]2O[C@H](COC(C)=O)[C@@H](OC(C)=O)[C@H](OC(C)=O)[C@H]2OC(C)=O)[C@H](OC(C)=O)[C@H]1OC(C)=O)OC", 46.1]
]}

input: Indicate its recorded Conductance decreasing; the molecule in question is CCCCCCCCCCCCCCCCOCC(COP(=O)(O)OC1OC(COC(C)=O)C(OC2OC(COC(C)=O)C(OC(C)=O)C(OC(C)=O)C2OC(C)=O)C(OC(C)=O)C1OC(C)=O)OC.CCN(CC)CC (mixture of isomers)
output: 38.9

input: Identify measured Conductance decreasing corresponding to "CCCCCCCCCCCCCCCCOC[C@H](CO[C@@H]1O[C@H](COC(C)=O)[C@@H](O[C@@H]2O[C@H](COC(C)=O)[C@H](OC(C)=O)[C@H](OC(C)=O)[C@H]2OC(C)=O)[C@H](OC(C)=O)[C@H]1OC(C)=O)OC"
output: 18.1

###

- Target Entity: PhosphoLipase C (PLC)
- Test Protocol: PhosphoLipase C activity
- Test Conditions: FIG. 11D
Observed Property: pIC50
To interpret pIC50, take it as minus log10 of a concentration measured in moles per litre.

input: Given the molecule CCCCCCCCCCCCCCCCCCOCC(COP(=O)([O-])OCC[N+](C)(C)C)OC (stereo not shown) [Edelfosine, reference compound] , write its reported pIC50.
output: 5.60

###

- Test Protocol: Cytotoxicity / cell viability (MTT, tetrazolium salt reduction)
- Test Conditions: human, MDA-MB-435s cells
Observed Property: IC50 at 24 h

input: Entry CCCCCCCCCCCCCCCCOCC(COP(=O)(O)OCC[N+](C)(C)C)OC (stereo not shown) needs its IC50 at 24 h filled in; supply it.
output: ~30 µM

###

- System: MDA-MB-435s
Observed Property: Toxicity

{"columns": ["Molecule", "Target Entity", "Observed Property", "Measured Value"],
 "data": [
  ["CCCCCCCCCCCCCCCCOCC(CO)OC (centres unmarked) [JPH 1597]", "MDA-MB-435s", "Toxicity", "No at 10 μM"],
  ["CCCCCOCC(O)CO[C@@H]1O[C@H](COC(C)=O)[C@@H](OC(C)=O)[C@H](OC(C)=O)[C@H]1OC(C)=O (some centres unmarked) [HCG450]", "MDA-MB-435s", "Toxicity", "Yes at 10 μM"],
  ["CCCCCCCCCCCCCCCCOCC(O)CO (centres unmarked) [GS 1361]", "MDA-MB-435s", "Toxicity", "No at 10 μM"],
  ["CCCCCCCCCCCCCCCCOCC(CO[C@@H]1O[C@H](CO)[C@H](O)[C@H](O)[C@H]1O)OC (some centres unmarked) [JPH 1524]", "MDA-MB-435s", "Toxicity", "Yes at 10 μM"]
]}
